Tested on: HOP-92 NSCLC
Experiment: NCI tumour cell line growth inhibition, 48 h
endpoint: TGI (µM)
Express your answer in µM, writing the number without its unit.

[ask] Please indicate TGI recorded for OC(C1=C/C(=C\c2ccncc2)c2ccccc21)c1ccncc1 (stereo unspecified)
[reply] 49.7

[ask] Please indicate TGI recorded for OCCN1CN(c2nc(N3CN(CCO)C3)nc(N3CN(CCO)C3)n2)C1
[reply] 53

[ask] Please indicate TGI recorded for C/C=C(\C)C(=O)N[C@H]1[C@@H](OC(C)=O)C[C@]2(C)C3CC[C@@]4(C)C(CC[C@@H]4C(C)N(C)C)C3CCC2[C@H]1O (stereo partly specified)
[reply] 15.5

[ask] Please indicate TGI recorded for O=C1CSC(c2cccc(Cl)c2)N1c1c(O)c(Cl)cc(Br)c1Cl (stereo unspecified)
[reply] 29.9

[ask] Please indicate TGI recorded for COc1ccc2c(c1)c(=O)c1c(NCCCN(C)CCCNc3ccc4c(=O)n(CCN(C)C)c(=O)n5c6ccc(OC)cc6c(=O)c3c45)ccc3c(=O)n(CCN(C)C)c(=O)n2c31
[reply] 0.941

[ask] Please indicate TGI recorded for Cc1cccc(C)c1NC(=O)/C(Cl)=C(/Cl)C(=O)O
[reply] 30.3

[ask] Please indicate TGI recorded for COC(=O)c1ccc(CCC2=CC(=O)C(Br)=CC2=O)cc1
[reply] 11.9

[ask] Please indicate TGI recorded for CCOC(=O)CCCn1c(SC)nc2cc(-c3ccco3)[nH]c2c1=O
[reply] 65.7

[ask] Please indicate TGI recorded for CCSCC(=O)N1CCc2c([nH]c3ccccc23)C1=O
[reply] 92.8

[ask] Please indicate TGI recorded for O=C(Nc1ccc(Cl)cc1)c1cccc([N+](=O)[O-])c1O
[reply] 4.72

[ask] Please indicate TGI recorded for COc1ccc(CNc2nc3cc(N)cc(N)c3nc2-c2ccccc2)cc1OC
[reply] 29.8

---

Test system: NCI-H226 lung
Experiment: NCI tumour cell line growth inhibition, 48 h
endpoint: TGI

[ask] Please indicate TGI recorded for N#CC(c1nc2ccccc2s1)c1nc(Cl)ncc1Br (centres undefined)
[reply] > 100 µM

[ask] Please indicate TGI recorded for Cc1ccc(C2(N3CCCC3)OC(C)(C)c3cccc4cccc2c34)cc1 (centres undefined)
[reply] 31.8 µM

[ask] Please indicate TGI recorded for O=C1CCCCCCCC/C=C/CCC(c2ccco2)O1 (centres undefined)
[reply] > 100 µM

[ask] Please indicate TGI recorded for COc1ccc(C[C@H]2NC(=O)/C=C/C[C@@H]([C@H](C)[C@H]3O[C@@H]3c3ccccc3)OC(=O)[C@H](CC(C)C)OC(=O)[C@H](C)CNC2=O)cc1
[reply] > 7.26e-05 µM

[ask] Please indicate TGI recorded for CCCCCNC(=O)[C@@H]1CCCN2C(=O)CC[C@H](NC(=O)[C@H](Cc3ccc(OP(=O)(O)O)cc3)NC(C)=O)C(=O)N12
[reply] > 25 µM

[ask] Please indicate TGI recorded for COc1ccc(C(=O)C(c2ccc(OC)cc2)C2(O)C(=O)Nc3c(C)cc(Cl)cc32)cc1 (centres undefined)
[reply] > 100 µM

[ask] Please indicate TGI recorded for CC(=O)c1cc2c(s1)C(=O)c1scc(C(C)=O)c1C2=O
[reply] 3.57 µM

[ask] Please indicate TGI recorded for N#Cc1ccccc1NC(=O)/C(=N\NC(=O)c1ccncc1)C(c1cnc2ccc([N+](=O)[O-])cc2n1)[N+](=O)[O-] (centres undefined)
[reply] > 100 µM

[ask] Please indicate TGI recorded for O=C(Nc1ccc(Cl)cc1)c1cccc([N+](=O)[O-])c1O
[reply] 7.95 µM
